- Target under test: RSV F protein of subtype A strain A2, on virus (respiratory syncytial virus subtype A …, UniProt P03420 26-574)
- Assay: cell-based or functional assay
Attribute measured: Neut IC50 (ug/ml) subtype A

Examples with answers:
1. ADI-15614 (antibody, V domains shown, IgG) VH: EVQLLESGGGLVKPGGSLRLSCAASGFTISGYNMFWVRQPPGKGLEWVSSITAGSSYLNYADSVKGRFIVSRDNAKNSLYLQMNSLRAEDTAVYFCARAPLLPAMMDLWGQGTTVTVSS VL: QSVLTQPPSVSGAPGQRVTISCTGSSSNIGAGYDVHWYQQLPGTAPKLLIYTNNNRPSGVPDRFSGSKSGTSASLAITGLQAEDEADYYCQSYDRSLNGYVFGTGTKLTVL    0.027 µg/mL
2. ADI-15559 (antibody, V domains shown, IgG; also called Antibody Number 130) VH: QVQLVQSGAEVKKPGSSVKVSCKASGGSLSTYGIHWVRQAPGQGLEWVGGVMTVYGKTTYGQNFQGRVTIAVDRSTNTAYMELSSLTSDDTGTYYCATDSYYVWTGSYPPPFDLWGQGTLVTVSS VL: EIVLTQTPGTQSLSPGQSATLSCRASHSVGNDYLAWYQQKPGQSPRLLIHGAYRRDSGIPDRFIGSGSGTDFTLTIDSLEPDDCAVYYCQQYGSWPLTFGGGTKVDIK    0.008 µg/mL

Please find the next binder below.
What the record says about ADI-15587 (antibody, V domains shown, IgG) VH: EVQLVESGGGVVRPGGSLRLSCAASGFKFDDYGMSWVRQAPGKGLEWVSAIIWNSGSTGYADSVKGRFIISRDNAKNSLYLQMNSLRAEDTALYYCARVGGITKWWYYGMDLWGQGTTVTVSS VL: ETTLTQSPSFLSASVGDRVTITCRASQGLSNYLAWYQQKPGRAPKLLIYAASTLQSGVPSRFRGSGSGTEFTLTISSLQPEDLATYYCQHLNSYPLTFGGGTKVEIK : Neut IC50 (ug/ml) subtype A is > 10 µg/mL
